- protocol notes: Metabolic stability in human liver S-9 fractions
- condition details: % parent remaining after 30 min at 37 C divided by average % ranolazine remaining (57%); 10 μM, human liver S9 2 mg/mL
Classify: yes (1) when Liver S-9 stability factor is strictly less than 1; no (0) when Liver S-9 stability factor is not.

The following molecules have reported results that may help.
Incoming: I'd appreciate it if you could check whether CCCCc1ccc(COCC(O)CN2CCN(CC(=O)Nc3c(C)cccc3C)CC2)cc1 (centres unmarked) has Liver S-9 stability factor smaller than 1.
Outgoing: yes (1)

Incoming: I'd appreciate it if you could check whether Cc1cccc(C)c1NC(=O)CN1CCN(CC(O)COC2CCCC2)CC1 (centres unmarked) has Liver S-9 stability factor smaller than 1.
Outgoing: no (0)

Incoming: I'd appreciate it if you could check whether Cc1cccc(C)c1NC(=O)CN1CCN(CC(O)COCc2ccc(-c3ccccc3)cc2)CC1 (centres unmarked) has Liver S-9 stability factor smaller than 1.
Outgoing: yes (1)

Incoming: I'd appreciate it if you could check whether Cc1cccc(C)c1NC(=O)CN1CCN(CC(O)COC2CCCCC2)CC1 (centres unmarked) has Liver S-9 stability factor smaller than 1.
Outgoing: no (0)

Incoming: I'd appreciate it if you could check whether Cc1cccc(C)c1NC(=O)CN1CCN(CC(O)COCc2ccc3ccccc3c2)CC1 (centres unmarked) has Liver S-9 stability factor smaller than 1.
Outgoing: yes (1)

---
Incoming: I'd appreciate it if you could check whether Cc1ccc(COCC(O)CN2CCN(CC(=O)Nc3c(C)cccc3C)CC2)cc1 (centres unmarked) has Liver S-9 stability factor smaller than 1.
Outgoing: yes (1)

Just for reference, patent US6451798B2 is where these values come from.
